Provenance of the data: ChEMBL document CHEMBL1124082

target: Adenosine kinase (Homo sapiens); test: Inhibition of adenosine kinase from undialyzed W1-L2 lysate (0-50 uM)
measured property: Ki (µM)
The reply should be a number in µM, with the unit left off.

Query: Report Ki for Nc1ncnc(N[C@@H]2O[C@H](CO)[C@@H](O)[C@H]2O)c1[N+](=O)[O-] please.
Response: 3

====

target: Adenosine kinase (Homo sapiens, UniProt P55263); experiment: Binding affinity towards adenosine kinase
Sequence (P55263 whole entry): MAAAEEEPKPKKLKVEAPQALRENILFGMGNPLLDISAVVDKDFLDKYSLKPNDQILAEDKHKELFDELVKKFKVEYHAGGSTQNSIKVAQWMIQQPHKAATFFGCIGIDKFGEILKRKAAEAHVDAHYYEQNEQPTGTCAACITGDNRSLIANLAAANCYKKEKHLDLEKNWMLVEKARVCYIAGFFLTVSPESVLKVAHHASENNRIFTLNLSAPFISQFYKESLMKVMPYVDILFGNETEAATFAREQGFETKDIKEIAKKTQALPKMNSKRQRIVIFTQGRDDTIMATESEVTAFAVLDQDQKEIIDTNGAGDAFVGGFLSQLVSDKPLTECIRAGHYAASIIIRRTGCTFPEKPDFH
measured property: Ki (nM)
The reply should be a number in nM, with the unit left off.

Query: Report Ki for Nc1ncnc(N[C@@H]2O[C@H](CO)[C@@H](O)[C@H]2O)c1[N+](=O)[O-] please.
Response: 300
